Ref: the Deep4Chem optical property database

Test: solvent given as SMILES
Details: in c1ccccc1
Measurement Kind: absorption maximum (nm)

Molecule	absorption maximum (nm)
CCCCC(CC)Cn1c2ccc(C(=C(C#N)C#N)c3ccccc3)cc2c2c(-c3ccc(Br)cc3)c3c(c(-c4ccc(Br)cc4)c21)c1cc(C(=C(C#N)C#N)c2ccccc2)ccc1n3CC(CC)CCCC (stereo unspecified)	458
CCC1=C(C)C(=O)n2c1cc1c(C)c(CCC(=O)OC)c(C)n1c2=O	420
CCN1c2ccc(-c3cc(-c4ccccc4)[nH]n3)cc2Sc2cc(-c3cc(-c4ccccc4)[nH]n3)ccc21	338
CN(C)c1ccc(/C=C/C=C2\CC/C(=C\c3ccc(N(C)C)cc3)C2=O)cc1	475
CN(C)c1ccc(/C=C2\CC/C(=C\c3ccc(C#N)cc3)C2=O)cc1	457
CC(C)(C)c1cc2ccc3cc(C(C)(C)C)cc4c3c2c(c1)c(=O)n1c4nc2c3ccccc3c3ccccc3c21	369
CC1(C)CC(/C=C/c2ccc(-n3cccn3)cc2)=CC(=C(C#N)C#N)C1	407
CN(C)c1cccc2c1-c1ccccc1C2=O	433
CC1(C)CCc2c(c3ccccc3c3nc4c5c(c6ccccc6c4nc23)OC(C)(C)CC5)O1	459.98
Cn1c(=O)c(-c2ccccc2)nc2ccccc21	369
CON(C)C(=O)c1ccc(/C=C/c2ccc(/C=C/c3ccc(C(=O)N(C)OC)cc3)cc2)cc1	368
COc1ccc(C#Cc2ccc(C#Cc3ccc(C#Cc4ccccc4C#N)cc3C#N)cc2C#N)cc1	371
O=c1oc2ccccc2nc1-c1ccccc1	332
CCCCn1c2ccc(/C=C(\C#N)c3ccc([N+](=O)[O-])cc3)cc2c2cc(Cn3c(-c4ccc5c(c4)c4ccccc4n5CCCC)nc4ccccc43)ccc21	409
Nc1ccc2nc(-c3ccccc3)c(=O)oc2c1	402
CN(C)c1ccc2nc(-c3ccccc3)sc2c1	364
CC/C=C/C=C/C=C/C=C/CCCCCCCC(=O)O	320
CC(C)(C)C1Nc2ccccc2C(=O)N1c1ccccc1 (stereo unspecified)	343
c1ccc(-c2nc(-c3ccc(-c4ccc(-n5c6ccccc6c6ccccc65)cc4)cn3)oc2-c2ccccc2)cc1	338
CCOC(=O)CN(CC(=O)OCC)c1ccc(-c2cc(-c3ccncc3)nc(-c3ccncc3)c2)cc1	332
CCOC(=O)CN(CC(=O)OCC)c1ccc(-c2cc(-c3cccnc3)nc(-c3cccnc3)c2)cc1	328

---

Assay: solvent given as SMILES
Details: in ClCCl
Measurement Kind: absorption maximum (nm)

See these solved cases before continuing.
>>> df
                           structure_string    measurement_kind  value_units  reading
0  CCCCCCc1cc2c(s1)-c1cc3c(cc1NB2c1ccccc1)-c1sc(CCCCCC)cc1B(c1ccccc1)N3  absorption maximum           nm      412
1  CC(C)c1cccc(C(C)C)c1N1C(=O)c2ccc3cc4c(cc5ccc6c7c(ccc4c57)C(=O)N(c4c(C(C)C)cccc4C(C)C)C6=O)c4ccc(c2c34)C1=O  absorption maximum           nm      648
2  CCOC(=O)/C(C#N)=C/c1cc2c3ccccc3n(C)c2cc1OC  absorption maximum           nm      412
3  Clc1ccc(N2c3sc4ccccc4c3Sc3c2sc2ccccc32)cc1  absorption maximum           nm      418
4  Cc1cc(O)c(C(=O)/C=C/c2ccc(Cl)cc2)c(=O)o1  absorption maximum           nm      360
5  CCn1c2ccccc2c2cc(C#Cc3cc(C#Cc4ccc5c(c4)c4ccccc4n5CC)nc(C#N)n3)ccc21  absorption maximum           nm      415
6  CCN(CC)c1ccc2c(c1)oc(=O)c1cnc3c(cnn3-c3ccccc3)c12  absorption maximum           nm      405
7            CC(=O)c1ccc2ccc3cccc4ccc1c2c34  absorption maximum           nm      385
8  CCN1\C(=C/C=C/C=C/C2=[N+](CC)c3ccc4cc(Br)ccc4c3C2(C)C)C(C)(C)c2c1ccc1cc(Br)ccc21  absorption maximum           nm      697
9    COc1ccc2c3cccc4c(OC)ccc(c5cccc1c52)c43  absorption maximum           nm      459

P: CN(C)c1ccc(C2=CC3=C(c4ccc([N+](=O)[O-])cc4)[C@H]4c5ccccc5[C@]3(S2)c2ccccc24)cc1
Q: COc1ccc(-c2cc3c(ccc4sccc43)s2)cc1
Pick one: P or Q . Which one has the lower reported absorption maximum? Response format: the label of the selected entry. Q

I: COc1ccc(N(c2ccccc2)c2ccc3ccc4c(N(c5ccccc5)c5ccc(OC)cc5)ccc5ccc2c3c54)cc1
II: CCC(CC)COC1=CC2=C3c4cc(OCC(CC)CC)c(-c5ccccc5)n4[B-](F)(F)[n+]4c3n(c3cc(C(C)(C)C)ccc34)[B-](F)(F)[N+]2=C1c1ccccc1
Please let me know which one, I or II , has a lower measured absorption maximum value. Let me know the label of the one you choose. I
